Where do the numbers come from? From patent US20230121086A1.

Target: RORγt (Homo sapiens, UniProt P51449)
Construct: […]
Sequence (P51449 269-508 limits assumed): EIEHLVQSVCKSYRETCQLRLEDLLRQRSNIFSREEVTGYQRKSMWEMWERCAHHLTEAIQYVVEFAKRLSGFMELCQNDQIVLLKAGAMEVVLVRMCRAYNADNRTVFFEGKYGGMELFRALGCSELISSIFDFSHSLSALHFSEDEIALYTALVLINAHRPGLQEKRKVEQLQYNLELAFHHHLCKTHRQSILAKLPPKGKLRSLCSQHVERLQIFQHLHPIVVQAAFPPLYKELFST
Assay: Fluorescence resonance energy transfer (FRET) test, inhibitory activity of RORγt
Type: biochemical
Settings: FRET, B-RORγt LBD / Biotin-SRC1; read-out: IC50
MEASUREMENT_LABEL: pIC50
Keep it numeric: pIC50 is minus log10 of the concentration in mol/L.

Some compounds with known pIC50 results, for comparison:
> print(dat)
                                   compound  measured.result
1  CCS(=O)(=O)c1ccc([C@H](CC#N)NC(=O)c2ccc(N3C[C@@H](Oc4ccc(Cl)cc4)C[C@H]3COC(F)F)cc2)cc1             8.70
2  CCS(=O)(=O)c1ccc([C@H](CC(=O)O)NC(=O)c2cnc(N3CCCC3c3cccc(F)c3)nc2)cc1 (some centres unmarked)             7.34

// pIC50 lookup, key: "CCS(=O)(=O)c1ccc([C@H](CC#N)NC(=O)c2ccc(N3C[C@@H](Oc4ccc5c(c4)OC(F)(F)O5)C[C@H]3COC(F)F)cc2)cc1"
7.92

// pIC50 lookup, key: CCS(=O)(=O)c1ccc([C@H](CC#N)NC(=O)c2ccc(N3CC(Oc4ccc(C(F)(F)F)cc4)C[C@H]3COC(F)F)cc2)nc1 (stereo in doubt)
7.55

// pIC50 lookup, key: CCS(=O)(=O)c1ccc([C@H](CC#N)NC(=O)c2ccc(N3CC(Oc4ccc(C(F)(F)F)cc4)C[C@H]3COC(F)(F)F)cc2)cc1 (stereo in doubt)
7.59

// pIC50 lookup, key: "CCS(=O)(=O)c1ccc([C@H](CC#N)NC(=O)c2ccc(N3C[C@@H](Oc4ccc(OC(F)F)nc4)C[C@H]3COC(F)F)cc2)cc1"
7.59

// pIC50 lookup, key: "CCS(=O)(=O)c1ccc([C@H](CC#N)NC(=O)c2ccc(N3C[C@@H](OCc4ccc(OC(F)(F)F)cc4)C[C@H]3COC(F)F)cc2)cc1"
7.17

// pIC50 lookup, key: "CCS(=O)(=O)c1ccc([C@H](COC(N)=O)NC(=O)c2ccc(N3C[C@@H](Oc4ccc(OC(F)(F)F)cn4)C[C@H]3CF)nc2)cc1"
8.14

// pIC50 lookup, key: "CCS(=O)(=O)c1ccc([C@H](CC#N)NC(=O)c2ccc(N3C[C@@H](Oc4ccc(-n5ccnc5)cc4)C[C@H]3COC(F)F)cc2)cc1"
7.44

// pIC50 lookup, key: CCS(=O)(=O)c1ccc([C@H](CC#N)NC(=O)c2ccc(N3C[C@@H](OC4CCC(C(F)(F)F)CC4)C[C@H]3COC(F)F)cc2)cc1 (some centres unmarked)
7.85

// pIC50 lookup, key: "CCS(=O)(=O)c1ccc([C@H](COC(=O)N(C)C)NC(=O)c2ccc(N3C[C@@H](Oc4ccc(C(F)(F)F)cc4)C[C@H]3COC(F)F)cc2)cc1"
7.33
